The reported measurements were obtained from patent US20040053842A1.

measurement_protocol: aqueous solubility
Assay type: physicochemical
study_conditions: aqueous environments
experimental_endpoint: solubility

So what does the record say about solubility for CCOC(=O)N1c2ccc(C(F)(F)F)cc2[C@@H](N(Cc2cc(C(F)(F)F)cc(C(F)(F)F)c2)C(=O)OC)C[C@H]1CC ? < 0.04 µg/mL
